Source of measurements: ChEMBL document CHEMBL1201862

# Tested on: HOP-18
# TEST: NCI tumour cell line growth inhibition, 48 h
Calls of active or inactive are those of the source. No stated cut-off is given here; in the data, active = GI50 up to about 1.1 µM and inactive = higher.
MEASURED QUANTITY: GI50

Example entries and their recorded answers appear below.
>>> print(df.to_string())
                                   molecule  measured_quantity             observed
0  Cc1cc(C)c(C2=NO[C@@H]3C(=O)N(c4ccc(Cc5ccc(N6C(=O)[C@H]7C(c8c(C)cc(C)cc8C)=NO[C@H]7C6=O)cc5)cc4)C(=O)[C@H]23)c(C)c1               GI50  > 100 µM (inactive)
1   O=C1O/C(=C(\Br)c2cccc3ccccc23)c2ccccc21               GI50   19.5 µM (inactive)
2  Oc1ccc2c3c1OC1C(=NN=C4CCC5(O)C6Cc7ccc(O)c8c7C5(CCN6CC5CC5)C4O8)CCC4(O)C(C2)N(CC2CC2)CCC314 (centres undefined)               GI50  > 100 µM (inactive)

-- ask Entry O=C(C(=O)N1CC2C=CC1CC2)c1c[nH]c2ccccc12 (centres undefined) has what GI50?
-- reply > 100 µM (inactive)

====

# Test system: NCI-H460
# TEST: NCI tumour cell line growth inhibition, 48 h
The source made the active and inactive calls. Rule as the data show it: active = GI50 up to about 1.1 µM and inactive = higher.
MEASURED QUANTITY: GI50

In [3]: df
Out[3]:
                                   molecule             observed
0  COC(=O)c1ccccc1/C=C1\Cc2cc3c(cc2C1=O)CCC3  > 100 µM (inactive)
1  C[N+]1(CCCCN2c3ccccc3Sc3cc(N=[N+]=[N-])ccc32)CCN(C(=O)CCNC(=O)Cc2ccc(C(=O)c3ccccc3)cc2)CC1   24.6 µM (inactive)
2  O=C1NC2(CCN(CCCC3(c4ccc(F)cc4)OCCO3)CC2)Oc2ccccc21   91.2 µM (inactive)

-- ask Field request: GI50 | item: CCN1c2cc(Br)cc3[nH]c(=O)n(c23)CCC1C (stereo not drawn)
-- reply 17 µM (inactive)

-- ask And what about the molecule "CCCCCCC(=O)c1ccc2ccccc2c1O" ?
-- reply 52.4 µM (inactive)

-- ask Same thing, different molecule: "Cc1ccc2c(=O)cc(-c3ccc(-c4ccccc4)s3)[nH]c2n1"
-- reply > 59.7 µM (inactive)

-- ask Also CCOP(=O)(OCC)C1C(=O)O[C@H]2CCCC[C@@H]12 (stereo partly drawn) ?
-- reply > 100 µM (inactive)

-- ask Same question, CCC(C(=O)c1cccs1)C(O)(C(F)(F)F)C(F)(F)F (stereo not drawn) this time
-- reply > 100 µM (inactive)

====

# Lookup of reported GI50 keyed by entry
# System: SK-OV-3
# TEST: NCI tumour cell line growth inhibition, 48 h
The source made the active and inactive calls. No stated cut-off is given here; in the data, active = GI50 up to about 1.1 µM and inactive = higher.

Study these solved cases before continuing.
>>> print(df.to_string())
                                   compound             observed
0  CCN1CN(c2ccccc2)C2(CCN(CC(CC3OCCO3)c3ccc(F)cc3)CC2)C1=O (stereo not given)   39.8 µM (inactive)
1       Nc1nc2c(ncn2Cc2ccccc2CCO)c(=O)[nH]1  > 100 µM (inactive)
2  CC1=C(O)C(=O)C2=C(C1=O)[C@@H]([C@@H](C)C/C=C/C(C)(C)O)CC[C@@H]2C  > 100 µM (inactive)
3  CCCCC/C=C1/CC(CO)(COC(=O)CC(C(C)C)C(C)C)OC1=O (stereo not given)   18.9 µM (inactive)
4       O=c1nc(/C=C/c2ccccc2Cl)cc2n1CCN2CCO   43.8 µM (inactive)

-- ask Form field: reported GI50 of CCC(C)Cn1c(C)nc2c1C(=O)c1ccccc1C2=O (stereo not given)
-- reply 54.3 µM (inactive)

-- ask Moving on to "O=C1O/C(=C(\Br)c2cccc3ccccc23)c2ccccc21"
-- reply > 39.8 µM (inactive)

-- ask Lookup "Cn1cc(NC(=O)c2cc(NC(=O)CCCCCCCCCCC(=O)Nc3cc(C(=O)Nc4cc(C(=O)NCCC(=N)N)n(C)c4)n(C)c3)cn2C)cc1C(=O)NCCC(=N)N"
-- reply > 100 µM (inactive)

-- ask Let us now turn to "Cc1cccc(NC(=O)CCl)c1"
-- reply > 10 µM (inactive)

-- ask Continue with COC(=O)C1=C(C(=O)OC)C2(C)C=CC1O2 (stereo not given)
-- reply > 100 µM (inactive)

====

# Tested on: COLO 205
# TEST: NCI tumour cell line growth inhibition, 48 h
The source made the active and inactive calls. Rule as the data show it: active = GI50 up to about 1.1 µM and inactive = higher.
MEASURED QUANTITY: GI50

-- ask Request the reported GI50 associated with Cc1ccc2nc(NC(=O)C(=O)C(C(=O)c3ccc4ccccc4c3)C3OC(=O)c4ccccc43)sc2c1 (stereo unspecified)
-- reply 15.1 µM (inactive)

-- ask Another compound to look at: Cn1c(C(C#N)c2nc(Cl)ncc2Br)nc2ccccc21 (stereo unspecified)
-- reply > 100 µM (inactive)

-- ask Also "CCSc1[nH]c(/N=C(/NC(=O)c2ccccc2)NC(C)C)c(C(N)=O)c1C(N)=O" ?
-- reply > 10 µM (inactive)

-- ask Input COc1ccccc1C1SCC(=O)N1c1ccc(-c2ccc(-n3c(-c4ccccc4)nc4ccccc4c3=O)cc2)cc1 (stereo unspecified)
-- reply > 100 µM (inactive)

-- ask Let us now turn to COC(=O)C1=C(O)C(C(=O)OC)[C@]2(O)[C@@H](C(=O)OC)[C@H]1[C@H](C)[C@@H](c1ccccc1)[C@@H]2C(=O)OC (stereo partly specified)
-- reply 77.3 µM (inactive)

-- ask Try the compound "CCOC(=O)C1=NN(c2ccc([N+](=O)[O-])cc2)[C@@]2(C)C[C@]3(c4ccccc4)N(c4ccc([N+](=O)[O-])cc4)N=C(C(=O)OCC)N3c3ccccc3N12"
-- reply > 100 µM (inactive)

====

# System: M19-MEL
# TEST: NCI tumour cell line growth inhibition, 48 h
Calls of active or inactive are those of the source. Rule as the data show it: active = GI50 up to about 1.1 µM and inactive = higher.
Could you please pick one outcome from this set? active, inactive

As a guide, the following entries are already answered.
                                   compound  assigned_label
0        CC1=C(N2CC2)C(=O)C(C)=C(N2CC2)C1=O          active
1  Cn1c(=O)nc2n(-c3ccc(F)c(F)c3)c3ccccc3nc-2c1=O        inactive
2   N#Cc1cc([N+](=O)[O-])ccc1NC(=O)C(F)(F)F        inactive
3  CC(=O)O[C@H]1CC[C@@]2(C)C(=CC[C@@H]3C2CC[C@]2(C)Nc4[nH]ncc4CC32)C1 (some centres not stated)        inactive
4  O=C1/C(=C/c2ccccc2)CN(C(=O)CCN2CCOCC2)C/C1=C\c1ccccc1        inactive

-- ask Please let me know the test result on file for COc1cc2c(c(OC)c1OC)-c1ccc(SC)c(=O)cc1C(CC(=O)Oc1ccc([N+](=O)[O-])cc1)C2 (configuration not stated) .
-- reply active

-- ask What about this compound? COC(=O)C1CCc2nnc(-c3ccccc3)n21 (configuration not stated)
-- reply inactive

====

# System: SK-MEL-2
# TEST: NCI tumour cell line growth inhibition, 48 h
The source made the active and inactive calls. Cut-off read from the data, not from the text of the source: active = GI50 up to about 1.1 µM and inactive = higher.
Collected GI50 values appear next to each entry.

Consider the worked cases shown below.
                                   compound  measured_quantity             observed
0  O=C1NC(c2ccc(O)cc2)C2CCC1C2 (stereo unspecified)               GI50  > 100 µM (inactive)
1  CC1=CC(C)C(C)N(CCNC(=O)Nc2ccccc2)c2ccccc21 (stereo unspecified)               GI50   23.1 µM (inactive)
2  Cc1ccc(NC(=O)C(=O)C2C(=O)C3=C(CC2(C)C)NC2C=CC=CC2S3)c(C)c1 (stereo unspecified)               GI50  > 100 µM (inactive)
3  Cn1c(=O)nc2n(-c3ccc(F)c(F)c3)c3ccccc3nc-2c1=O               GI50     17 µM (inactive)
4               Cc1ccc(-n2c(C)n[nH]c2=O)cc1               GI50  > 100 µM (inactive)

-- ask Given the compound "CC(C)Oc1cccc(N2C(NCCc3c[nH]c4ccccc34)=Nc3ccncc3S2(=O)=O)c1" , what is its reported GI50?
-- reply 20.8 µM (inactive)

-- ask One more compound: "O=C1c2ccccc2-c2nc(-c3cccnc3)cc3c2c1nc1ccccc13"
-- reply > 100 µM (inactive)

====

# Tested on: COLO 205
# TEST: NCI tumour cell line growth inhibition, 48 h
Calls of active or inactive are those of the source. No stated cut-off is given here; in the data, active = GI50 up to about 1.1 µM and inactive = higher.
Valid outcomes are listed here; reply with one: 1 = active, -1 = inactive

Reference set, count: 2
>>> df
                                   compound  assigned_label
0  O=C(C(=O)N1CC2C=CC1CC2)c1c[nH]c2ccccc12 (stereo unspecified)              -1
1                      Cc1cccc(NC(=O)CCl)c1              -1

-- ask Look up the recorded call for "COc1ccc(C(=O)Nc2ccc3oc(-c4ccccc4)nc3c2)cc1" in this test.
-- reply -1

-- ask Another: "CC1=CCC(C)=Nc2nc3ccccc3n21"
-- reply -1

-- ask Let us now turn to "CCN(CC)CCn1ccc(=O)c2cc3c(=O)ccn(CCN(CC)CC)c3c(C)c21"
-- reply -1

-- ask What about "Brc1ccc2ns[s+]c2c1" ?
-- reply -1

-- ask Repeat for the following compound: N/N=C1\C(=O)N(c2ccc(Cl)cc2Cl)C(=O)C(=O)C1c1nc2ccccc2o1 (stereo unspecified)
-- reply -1

-- ask Subsequent entry: "C/C(=N\NS(=O)(=O)c1ccccc1)c1ccccc1"
-- reply -1

-- ask CNC1=C(C)C(=O)C2=C(C1=O)C(COC(N)=O)C1(OC)C3NC3CN21 (stereo unspecified) ?
-- reply 1

-- ask Then what about the compound "CN(C)CCN1Nc2c3ccccc3nc3c(C(=O)NCCCN(C)CCCNC(=O)c4ccc5c6c(c7ccccc7nc46)NN5CCN(C)C)ccc1c23" ?
-- reply 1

-- ask Now the compound CCCCCCCCCCCCCCCCC(=O)NCC(=O)NCC(=O)NC(Cc1ccccc1)C(=O)Oc1ccc([N+](=O)[O-])cc1 (stereo unspecified)
-- reply -1

-- ask Also need "CN1CCN(P2(=S)Oc3ccc4ccccc4c3-c3c(ccc4ccccc34)O2)CC1" , thanks.
-- reply -1

-- ask Try the compound COc1ccc(C(CC(=O)c2ccccc2)C(=O)c2ccc3c(c2)OCO3)cc1 (stereo unspecified)
-- reply -1

-- ask Repeat for the following compound: "c1ccc(COc2nc3cc(C45CC6CC(CC(C6)C4)C5)ccc3[nH]2)cc1"
-- reply -1

-- ask Now give it for "O=S(=O)(N/N=C/c1ccc(/C=N/NS(=O)(=O)c2ccccc2)cc1)c1ccccc1" too.
-- reply -1

-- ask Query "NS(=O)(=O)c1ccc(NS(=O)(=O)c2ccc(NC(=O)N(c3ccccc3)c3ccccc3)cc2)cc1" next
-- reply -1
